# Tested on: HCT-15 colon
# experiment summary: NCI tumour cell line growth inhibition, 48 h
test readout: GI50

Hi! Can you tell me GI50 for each of these compounds?
1. CC(C)c1ccc2c(c1)CCC1C2CCCC1(C)NCc1ccccc1 (stereo not drawn)
2. CC[C@]12C=CCN3CC[C@@]4(c5ccc(OC)cc5N(C)[C@H]4[C@@](O)(C(=O)OC)[C@@H]1OC(=O)CCCN1CCN(CCCC(=O)O[C@@H]4[C@]5(CC)C=CCN6CC[C@@]7(c8ccc(OC)cc8N(C)[C@H]7[C@@]4(O)C(=O)OC)[C@@H]65)CC1)[C@@H]32
3. COc1cc2c(Oc3ccc(-c4cnc(Nc5ccc(F)cc5)n(C)c4=O)cc3F)ccnc2cc1OCCCN1CCOCC1

RESULT:
1. 2870 nM
2. 1200 nM
3. 1180 nM
